- procedureSummary: label from the status in PepcDB records
quantity: protein production

Study these solved cases before continuing.
QAQITGRPEWIWLALGTALMGLGTLYFLVKGMGVSDPDAKKFYAITTLVPAIAFTMYLSMLLGYGLTMVPFGGEQNPIYWARYADWLFTTPLLLLDLALLVDADQGTILALVGADGIMIGTGLVGALTKVYSYRFVWWAISTAAMLYILYVLFFGFTSKAESMRPEVASTFKVLRNVTVVLWSAYPVVWLIGSEGAGIVPLNIETLLFMVLDVSAKVGFGLILLRSRAIFGEAEAPEPSAGDGAAATS; not failed
MGGKRHQNSGKGGKGRAKDAASAPQPNAGKVTLEGRSFLYVGGRDCQVAHLRQIASSYGAELIHHDGGLREAVSRIDRVLPSVDCVFCPIDCISHDACLRVKTGCKKWGKAFVPLRNGSKSSLEHHHHHH; not failed
MRVCAVVVTYNRKDLLVECLEALRRQTGPLDAIYIIDNASTDGTPELLRSRGYRDGAVIENPLDGSEIVIRYVRLPVNTGGAGGFHEGVKRAFHDGYDWIWLMDDDAEPLPDSLQGLLRYADDDTAALANLKVSPDGRPQYIHRGFFDFDSFGTFVRPVTEDDLREETLEIDHASFVGILINSDSVREIGFPRKEFFLHYDDVEYCLRLRSTGKIILVPGSLILHKEAAERGNLTKGLFGREIPVVPYDKLWLRYYGVRNSIWLRRKEMGRARLFIFMVRAILLSVAAQIITGIREKPFRRVRFILSAYSDGLRGRFDNEKPRRILYG; failed
MLDVAPPVITPRGTKIEPSAGAPFEAVRVARDVLHTSRTAALATLDPVSGYPYTTATNIGIEPDGTPFFFAAGLTLHARNMETDARISVTLAPFGKGDALTLPRLTLVGRADRIGPDEVPLAIARYIARYPKAKLYLSLPDTRLYRLRTEGVQINGGPARNASNITPADLRTDLSGAEELMAAAESEATRLNAIKGEASRLAVLAGAKTGRWKITSIDPDGIDLASASDLARLWFAERVETLKQFEKALAQLLK; not failed
MKGNALCTGEPVMTIETRGGGSEDIAVLPLDPTGNITRLFIRERCNDSSDPECKTGQWRLGSVDISRENTPASTRYAWRPGNNASEDDFEPLGMSLVPGNTPGEGTLFVIDIARPQSVRIWQLDISGGEITKATLATPADTQTGARLTAANSLQAVRNDDSRSFHLTITRFDEYGLLPFRPTPWPALVRINNGVIQPPPAQDFRNANGIIRPCAGCDLVIASYWERRLRFVSKENGEIGEYASAELPIRPDNLRLDGERILIAGQRRVDLTALNLLVSPHIPSPSGVYAIDTRSLGPDTVPTLLWEGGWKHGHSVATAVALPGNRLAIGQINTPGILIADCSPLEHHHHHH; failed

Now turn to the next sequence.
protein production lookup needed for MKTPTSRPVVLCLSGHDPSGGAGLQADIEALLAQGCHAAPAVTALTVQDTVNVSDFRVLDREWVLAQANAVLADLPVAAVKLGMLGSLEMVDTVAEILAAHPHLPVVCDPVLRAGGGGALGKGDVGFAMRERLLPRATIATPNLPEARLLADLPEGSADQCAERLLEHCEHLLITGGHGDESEVHNRLYSRDGSRRTFTCQRLPGSYHGSGCTLASALAGRIALGEALHGAVQSALDYTWRTLRDAESPGHGQYVPRRLPTDFCH , thanks.
failed

----------
- procedureSummary: label from the status in PepcDB records
quantity: protein production

MKVDVDEKTYIITMANDITKLYEENKRNLHYSITDPLTGAYNRKYLNDRFDIFIGDYIVLIDLDNFKMINDYEGHNVGDKILCDFVSLLNKELINSTSIIRLGGDEFIVIFSSDVDKNYVYSQLEALRENFLKVFSKYKYLSFSYGVDTVKRNLKLTIVELDKKMYKNKEKLEHHHHHH; failed
MSEFEGWIKWLEPVFLLWKPEDPGYERPAYRDWTKEEDEPKYSPEKELALLDKQILASDGFDIDFTHFRCVFNYHLAYLDSHEFVDEPETTRDLLERLSRKALDDYNQESVVKANFHFCCAIMFLITFEVVDPYDNLIKLFQTRVRHAEDIVTEYVFCRPKPNQGVECIGVKNNDGKDVQTNVKEQEIPCMYGWFLRVITITFTLQIGVGASICHKE; failed
MRLVEIGRFGAPYALKGGLRFRGEPVVLHLERVYVEGHGWRAIEDLYRVGEELVVHLAGVTDRTLAEALVGLRVYAEVADLPPLEEGRYYYFALIGLPVYVEGRQVGEVVDILDAGAQDVLIIRGVGERLRDRAERLVPLQAPYVRVEEGSIHVDPIPGLFD; not failed
MNHPAHHGPTVTPKRRHPDSTGAAPVGIVIATRNRRASLAVTVRNLLALPERPDVLVVDNASTDDTRAMLARDFPQVRVLPLPYNRGALARTHGVRALDTPYVAFSDDDSWWAPGALGAAARHFDDHPRLGLLSARTLVGPGDAADPLNDLLADSPLGTATDLPGTQVLGFLGCAAVARRTAYLDAGGYHPLLFFGGEETLLAYDLAARGWGVTHCPDVIAHHHPHPRPRTGRPAVVRRNALLTAWLRRPLPHALARTRALAADARRDPHARHALRETLTRLPAALRARRPLPPHVERAARLLDGADGPDGPGGAVSLEHHHHHH; not failed

protein production lookup needed for EDVEFVRLNVSDLLTDPELAQSIFSLLVSAHYQTSPNDWLALLSDPSLFCWAGIDKSSRNVLTCALVSLEGQLDNELIADIQVGKRRPRGHLVPVSLTQTLCINEPAQQSCIRIMRIAVEQHYQRMHLGSKFIEYIKAFYCDLGIDYLSTSFGSTPGLNEFWLSLDF , thanks.
failed

Same thing, different sequence: MNRLFGNGRCLDVAIDHGVCNEPSFLDGLENMPAVVKALVDARPDAIQMNYGQADLLQDLPGKDKPALVMRIDMGNPYNRIRHRDMWAVLQNEAEPLVGALQMDAACVVVNLFMLPDEPDLFRQCVQNISRVRADCEKYGMPLMIEPLVMQPVTERGGYMVDGDADKIVTLTRLAREMGADIVKADPTTNAEDFHRVVEAARCPVLVRGGGKEDLAAVFAKSTALMRQGAMGMVYGRNIYQHANPSAVVRGLMAIIHQDASGEEAVAIYRQG
failed

Same thing, different sequence: MSGIEAKNLWHRLNNLALVRFLLLVAAGWAIVQLLAYFETVIIIFTFAAILAFLLSYPVQWLRRFLPHSVAVVVVFLISIVILGGLLITVGVALLSQGQQLIDSISAFLTSLLPFLERIERLLSNRNLQIDLSVIQEQLRTQAVSTLVTSLAIVQQFLTNFVTFILIAVVAFFMLLDGEKLWNFILKIVPQKRRIRFTNIMRRSFLGFFRGQLLLCLFLTSSTFIIFLLLQVPFALILSVIVGILDIIPGIGATLGVGTITLIVLSQDVWLALKVLAACVVLQQIQDNLISPRIMQGSLNLNPVVVFFALLVGARVAGLLGVFISIPITGVIVSLFEIDEMKSEV
failed

----------
- procedureSummary: label from the status in PepcDB records
quantity: protein production

MTSHHAIEVTKTVLEVADVAWTAVETYHHHHHHQDENHESTNPISDPRDRELEALRQENRRLRTLLESNLKLFETLAESAAFSHDCPSDLYARLVTMVTSRDFLARLENLRQALSNGTQNQFPFKEPTEDDVKTVEVLIEMDHQEPSWWVLVTDDMVPSNVEEQSAIDNEHYIVVNEEHVIDAVAHFLAKCIMSNPKAKNLKPEELQKLLVQEVTALSKVGKVVDIWHAGKMFYTLSTWGLAFGGLYQARGVLKIAAKGVHATSKVVLRAL; failed
MGIPEEIPPVFKTAVDVLRGASFGVADASILGYPATSMTLNQQVDNFRSMKSNWIDDFIGRSLFMIYIGTEDKLNFTKNKPNAASICHFRY; failed

----------
- procedureSummary: label from the status in PepcDB records
quantity: protein production

Study these solved cases before continuing.
MNAYLSMNSDWRASMTQTVLVLGASGRFGRNAAEAFGRAGWTVRQFDRKRDDLDAAARGADVIVNAWNPPYPDWAATVPGLHARVIKTAQATGATVIIPGNVYVFGADTPAPWGPDSPHAATNPLGRIRIDMEAAYRASGVRTILLRAGDFLDTCASGNWFDQVMIKRLDKGRFTYPGNPDIPHAWAYLPDLARATVTLSERRETLPVFCDLTYPGYTMTGRQIATGLEQVTGRRVALKRMNWLPLHLARPVWSLAGSLLEMRYLWNTPHSLDGAAFAKVLPEFVQTPFEQALASAIPARLLAAQVHPDQAVAAGL; failed
MKNDRKARLILSIFRYGKNHMEKETFYHKVNYGIYKILNAVFVIGFFGTELQASQSISNNIILFHPYGIVVSGEATLGDEVVIRQQVTIGNKGTGEGADDCPIIGDRVDIGAGAKIIGGITIGENSKIGANAVVTKSFPANSILVGVPARNIASKAMNGLEHHHHHH; not failed
MGEAAKDQTEEVIQAWYLDNKEEDQKLPHHKDPKEFVSLDKLAELGVLCWRLDADNYETDEELKRIRESRGYSYMDLCEVCPEKLPNYEEKVKMFFEEHLHIDEEIRYCLAGSGYFDVRDLNDIWIRVWVKKGGLIVFPAGIYHRFTVDSDNYMKAMRLFVGGPVWTAYNRPHDHLPARKAYMKKFLKVIGDRNIDASA; failed
MRQFPPASSTVISVNFEELQAFVGRNPMLSLALVGLTIAIIVTEIARLFRGYRALKPAELTRLINSENALVIDLSPTADFEKGHIAGSRNVALAKFDPAGKLLANAKSSPVVVVCRSGNASAGAAKTLKKAGFEQVYWLEGGIAAWQMAELPLVKGRA; failed
MATGGLAIIQSMKHKLPPSERKLADYILAHPHKAIESTVNEISALANSSDAAVIRLCKSLGLKGFQDLKMRVAGDLAKPTFQGYRDIVPHEPLPSISEKTAGNAIQAIQDTSDLMDYKELERAVSLLLKAHTVHFIGLGASGIVAKDAQQKWLRIHKQATAFTDTHLVASLIANADKDDIVFAISFSGETQEIVELFAMAKEKGITTISLTQFSQTSVSALADVPLYTAHSNEALIRSAATSSRLAQLFIIDVLFLGMAAEQYETTTGYIDKTRAAIQSMRIK; not failed

protein production lookup needed for MEVFLMIRRKKTTIFAEAQESSTVLELKRIVQGILKRPPEEQLLFKDDQLLDESKTLRDCGFTSQIAKAQDPATVALVFREDASEGVQIHPYSTPLLPSVMKTGTDSLSDEIKSGLDSLSDEIKSGLDSVWCIKPEAAAGMEVFLMIRRKKTTIFAEAQESSTVLELKRIVQGFLKKPPKDQLLFKDNQLLEERKTLRDCGITGRIAKPEDPAILTLEFREDAFQLLHASPFSCPLIGGVLKNGLDFKRD , thanks.
failed

Reference source: a protein production outcome set (Wang et al. 2014)
